test_system: T1, c-Kit expressed on the cell surface of M-07e cells (human, UniProt P10721 26-976)
T1 construct: whole, on cells; also called cell surface expressed c-Kit; CD117
T1 sequence (P10721 26-976): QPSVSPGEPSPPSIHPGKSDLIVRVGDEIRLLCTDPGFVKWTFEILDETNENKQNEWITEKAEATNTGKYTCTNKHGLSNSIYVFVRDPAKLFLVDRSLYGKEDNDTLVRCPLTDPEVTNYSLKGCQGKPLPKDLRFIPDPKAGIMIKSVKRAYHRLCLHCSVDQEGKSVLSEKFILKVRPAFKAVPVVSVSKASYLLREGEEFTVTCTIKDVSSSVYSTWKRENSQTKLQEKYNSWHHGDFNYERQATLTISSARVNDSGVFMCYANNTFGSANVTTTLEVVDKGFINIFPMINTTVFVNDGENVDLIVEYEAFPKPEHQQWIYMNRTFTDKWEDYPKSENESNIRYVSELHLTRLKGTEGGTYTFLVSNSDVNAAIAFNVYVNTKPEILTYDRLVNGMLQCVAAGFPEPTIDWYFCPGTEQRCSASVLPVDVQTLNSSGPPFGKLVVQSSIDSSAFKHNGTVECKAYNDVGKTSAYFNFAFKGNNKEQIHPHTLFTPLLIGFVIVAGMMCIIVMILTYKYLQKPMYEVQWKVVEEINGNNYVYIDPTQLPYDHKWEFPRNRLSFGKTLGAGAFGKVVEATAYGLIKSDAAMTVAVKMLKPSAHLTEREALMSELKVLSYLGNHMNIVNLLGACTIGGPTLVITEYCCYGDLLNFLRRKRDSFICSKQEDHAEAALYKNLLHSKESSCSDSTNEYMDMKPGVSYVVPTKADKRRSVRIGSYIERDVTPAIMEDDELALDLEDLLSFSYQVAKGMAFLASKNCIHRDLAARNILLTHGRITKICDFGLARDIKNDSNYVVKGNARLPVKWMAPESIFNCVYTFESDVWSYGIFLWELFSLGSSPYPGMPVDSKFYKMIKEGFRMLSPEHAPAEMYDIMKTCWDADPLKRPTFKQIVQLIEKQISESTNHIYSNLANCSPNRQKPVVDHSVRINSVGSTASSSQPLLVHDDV
assay_name: flow cytometry on M-07e cells
reported_property: Percent Positive for c-Kit on M-07e cells (%)
Entry rule: numbers only, all in %.

For this binder ( hSR1-6 (antibody, human IgG1, kappa, V domains shown, also called humanized SR1-6; hSR1-H3 / hSR1-L2r) VH: QVQLVQSGAEVKKPGASVKMSCKASGYTFTSYNMHWVRQAPGQGLEWIGVIYSGNGDTSYAQKFQGRATLTADTSTSTAYMELSSLRSEDTAVYYCARERDTRFGNWGQGTLVTVSS VL: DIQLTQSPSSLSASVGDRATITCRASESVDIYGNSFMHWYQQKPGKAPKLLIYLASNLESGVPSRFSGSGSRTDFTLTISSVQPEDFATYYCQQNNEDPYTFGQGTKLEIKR ), measured Percent Positive for c-Kit on M-07e cells is 99.4
